Measured values drawn from patent US9446044B2 for this set.

biological target: DYRK1B (Homo sapiens (Human)); experiment: DYRK1B kinase assay (HotSpot, Reaction Biology); format: biochemical; conditions: purified recombinant kinase, 10 μM ATP, room temperature 120 min
Sequence (Q9Y463 whole entry): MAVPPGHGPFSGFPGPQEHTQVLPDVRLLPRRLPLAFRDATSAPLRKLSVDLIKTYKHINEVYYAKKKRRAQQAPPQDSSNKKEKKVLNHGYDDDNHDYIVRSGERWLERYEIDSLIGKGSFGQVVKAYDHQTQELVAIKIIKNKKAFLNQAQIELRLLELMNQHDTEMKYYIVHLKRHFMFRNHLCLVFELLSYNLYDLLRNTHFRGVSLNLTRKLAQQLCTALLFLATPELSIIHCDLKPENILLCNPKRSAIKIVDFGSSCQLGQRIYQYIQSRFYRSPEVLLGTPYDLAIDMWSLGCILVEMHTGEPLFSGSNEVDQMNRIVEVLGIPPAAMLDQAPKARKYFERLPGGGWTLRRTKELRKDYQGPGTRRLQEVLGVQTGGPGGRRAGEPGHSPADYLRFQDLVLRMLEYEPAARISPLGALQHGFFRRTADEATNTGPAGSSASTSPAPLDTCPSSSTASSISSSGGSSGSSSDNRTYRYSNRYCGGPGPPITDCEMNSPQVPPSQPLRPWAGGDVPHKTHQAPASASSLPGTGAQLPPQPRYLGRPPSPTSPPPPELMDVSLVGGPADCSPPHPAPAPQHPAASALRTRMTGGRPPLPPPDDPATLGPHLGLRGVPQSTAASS
Strictly below 4 nM in IC50: True. Otherwise: False.

COC(=N)c1nc2ccc3ncnc(Nc4ccc5c(c4)OCO5)c3c2s1 [Compound 48]
False
COC(=N)c1nc2ccc3ncnc(Nc4ccc(F)cc4F)c3c2s1 [Compound 78]
True
COC(=N)c1nc2ccc3ncnc(Nc4ccc(N5CCCC5)cc4)c3c2s1 [Compound 77]
False

## Task For COC(=N)c1nc2ccc3ncnc(Nc4cc(Br)c5c(c4)OCO5)c3c2s1 [Compound 47] , is the recorded IC50 below the cut-off of 4 nM?
## Result True

## Task For COC(=N)c1nc2ccc3ncnc(Nc4ccc(O)c([N+](=O)[O-])c4)c3c2s1 [Compound 60] , is the recorded IC50 below the cut-off of 4 nM?
## Result False
